- test.target: HLA-A*6801 (human)
- test.method.notes: competition with 125I-labelled standard peptide for purified HLA; gel filtration
assay.endpoint: pIC50
Field pIC50 (float): negative decimal logarithm of the concentration in molar.

binder	endpoint.value
AVPLDSTFYK [Her2/neU.997.V2K10]	6.64
LVKSPNHVR [Her2/neu.852.R9]	7.30
AVPLDSTFYR [Her2/neu.997.V2]	7.14

Now look at this one.
For the binder MVLESILRR [Her2/neu.889.V2] , give its reported pIC50.
7.66

Data provenance is patent US20040018971A1.
